Entries annotated with measured MIC
- System: Pseudomonas aeruginosa
- protocol: Antimicrobial activity against Pseudomonas aeruginosa NCIM 5029 after 18 hrs by broth microdilution assay
- Type: functional
- test.conditions: NCIM 5029, 18 h
Respond with a number, then the unit of measure.

Use these answered entries as a reference point.
C#CCN1C(=O)[C@]2(c3ccccc31)N(C)C[C@H](c1ccccc1O)[C@]21CC(=O)N(C)C1=O
146 µM
CN1C(=O)C[C@@]2(C1=O)[C@@H](c1ccccc1O)CN(C)[C@@]21C(=O)Nc2ccccc21
80 µM
CN1C(=O)C[C@@]2(C1=O)[C@@H](c1ccc(Cl)cc1)CN(C)[C@@]21C(=O)N(C)c2ccccc21
147 µM
COc1ccc([C@H]2CN(C)[C@@]3(C(=O)N(Cc4ccccc4)c4ccccc43)[C@@]23CC(=O)N(C)C3=O)cc1
252 µM
COc1ccc([C@H]2CN(C)[C@@]3(C(=O)N(C)c4ccccc43)[C@@]23CC(=O)N(C)C3=O)cc1
298 µM

Ask | State its MIC: CN1C(=O)C[C@@]2(C1=O)[C@@H](c1ccccc1O)CN(C)[C@@]21C(=O)N(C)c2ccccc21
Reply | 77 µM

Ask | State its MIC: COc1ccc([C@H]2CN(C)[C@@]3(C(=O)Nc4ccccc43)[C@@]23CC(=O)N(C)C3=O)cc1
Reply | 154 µM

Ask | State its MIC: CC1(C)S[C@@H]2[C@H](NC(=O)[C@H](N)c3ccccc3)C(=O)N2[C@H]1C(=O)O
Reply | 168 µM
